Reported apparent KD of MS2 coat protein by item:
System: MS2 coat protein
Test: apparent KD of MS2 coat protein; designed switch direction (-1 OFF switch, 1 ON switch): -1; higher = weaker reporter binding
Conditions: input ligand: none
Return type: number; implicit unit nM.

Example results:
Q. Consider the sequence AAAUGAGAGCAGGAUAUCUUAUAAAUGUAUGAAAGAGAAGGGCUCACAUGAGGAUCACCCAUGUGGUCCUAGAU [jl-ex6-4.77 jandersonlee mod] (Eterna round: R97, puzzle: Exclusion 6) and give its measured apparent KD of MS2 coat protein.
A. 32.7

Q. Another: CUCGUGCAGCAAAGCUGUACGAGUACAUGAGGAUCACCCAUGUAGGAUAUGGUACGCUUUGCGUGCUAGAAGGAUAUGUGUAGG [Mat - Exclusion NG 3 - Mod of JL - D86] (Eterna round: R96, puzzle: Exclusion NG 3)
A. 36.1

Now look at this one.
Q. Requested read-out: apparent KD of MS2 coat protein. Entry: GGUCUACAUGAGGAUCACCCAUGUAAGGAUAUCGUCACUGGAGCCUCGGCUCCAGUGACGAGAAGGUGCAUAAU [E1/11-A2] (Eterna round: R97, puzzle: Exclusion 1)
A. 36.6

---

Test system: K4 kissing-loop RNA reporter
Experiment: apparent KD of K4 kissing-loop reporter; higher = weaker reporter binding
Details: Eterna round: R107; input ligand: FMN 200 uM
Classify by measured apparent KD of K4 kissing-loop reporter: 1 if it is equal to or exceeds 0.3 µM, 0 if it is smaller.

Q. Check the entry AGACUACUGACAGGAUAUAACAUCCUGGUCGUAUACCGAAAGGUAUACGAUUUCCUUCUAGUGAUGUUAGAAGGGUCGGUAGUCA [Omei KL FMN B Exc B v14] : does apparent KD of K4 kissing-loop reporter equal or exceed 0.3 µM?
A. 0

Q. Quick one: UGGAUAUCGUUUAGUCUGGUGAGCUCAGAUACCAGACUAGCGAUAGUCCCUUGGCAGCUGAUUAUGAUUGAGUGAUGUUCAAUCG [Theo A Ex t9b]
A. 0

Q. Then this sequence: GGAUAGGAAAGAGGAUAUGGGCUAGGCAAGAAUAACUUGUCUAGCAAAUCCAUGAGGAGUGAUGUUCCAGAAGGCUUUCCUAUCG [FmnBX 1 A9+U77]
A. 1

Q. Record: AGAGAUAUAUGAGGAUAUGAGAUAGUUAAUGAGUGAGUUUUAGUGUUGUUUGGUUAGUGAUGUUAUUUAGAAGGCGUGAGUGAUG [grrfullin]
A. 0

Q. Now give it for GUGCAGUGAUGUUGCACGAGGAAAGACGAUACCAGCCGUAAAUAAGGCCCUUGGCAGCGUGGGCUAGCAUAAAGCAUGCUAGUCU [Edbemavela] too.
A. 0

Q. UGUCAUUGGUCGGCCGCCACUCCAUAAAGAGUGAUGUUCUAAAAGACGGAUCGAAAGAUCUGUCGGAGGACCGGGACCGAUGACU [FiskerMod 4 - Jieux - Same State - Tryptophan B] ?
A. 1

Q. Continue with AGUAAUGUCACGGCCGCCACUCUUUAUUGUUUUUAUAGUUAUAAAUCUUGCCAGUGAUGUUGGUAGAGGACCGGGUGACUUAAUA [#26 K4 Tryptophan B Same State]
A. 0

Q. What do we get for GGUUCCUCAGUGAUGUUGAGGUGACCUCGGCAGGAUAUAGGCAUUACUAGAAGGGCCAAAAGAACCCUGUGUAGCGACACAGGGA [Beerma] ?
A. 0

---

In this section we review reported apparent KD of MS2 coat protein values for a set of sequences.
System: MS2 coat protein
Test: apparent KD of MS2 coat protein, switch OFF state (with FMN for OFF switches, without FMN for ON switches); designed switch direction (-1 OFF switch, 1 ON switch): -1; higher = weaker reporter binding
Conditions: FMN input: 0 or 200 uM; Eterna round: R93 (includes R88 designs)
Field format: number, assumed nM, no unit text.

Q. apparent KD of MS2 coat protein for AUAAAACAUGAGGAUCACCCAUGUGAGGAUAUGCGAAAUAAAGAAAUAAAUAAAUAAAGCAGAAGGCACAAUAA [Ex 1 Tesla 1] ?
A. 21.9

Q. Try this sequence next: AACAGUACAGGAUAUACAUGAGGAUCACCCAUGUGAGAAUUAAGUGGCGUACCACAAAGUAGAAGGGUACUGGA [JL Maslow Revisted mod 16]
A. 173

Others:
Q. For AGCUAGUCAGGAUAUACGAACAUGUCACAAGACGUGAAGGGACAUGAGGAUCACCCAUGUAGAAGGGACUAGCA [74%, Web mod - With 1 more C's] , what is its reported apparent KD of MS2 coat protein?
A. 203

---

Test system: MS2 coat protein
Experiment: apparent KD of MS2 coat protein; designed switch direction (-1 OFF switch, 1 ON switch): 1; higher = weaker reporter binding
Conditions: Eterna round: R95; input ligand: microRNA oligo, concentration not stated
measured.metric: apparent KD of MS2 coat protein
The answer consists of two parts: a number and, after it, its unit.

Q. Param item = AUCCUACAUGAGGAUCACCCAUGUGACGCCUCAAUAGGAUAUCGGGCCCACAGUCGGGAACGAGAAGGAUUGAAGC [Beatonce] (puzzle: Same State 1) ; retrieve measured apparent KD of MS2 coat protein.
A. 170 nM

Q. Please give the result for UACAAUCUAUCUGAGGAUAUCAUGAUUGUAACAUGAGGAUCACCCAUGUGCAGGAAAACUGCAUAUGAGAAGGCAGAUAGAUUGU [salish99_ss2_r3_071] (puzzle: Same State 2) too.
A. 78 nM

Q. Now try AUGCCCGUAGCACAGGAUAUCCGAGGCAAAACAUGAGGAUCACCCAUGUCAAACGAAAAUCCGAAGGAGAAGGGUGAACGGGCUC [Xeisquorat] (puzzle: Same State 2) .
A. 11.8 nM

***
Q. Form field: reported apparent KD of MS2 coat protein of AGAGCCGGCACUGAGGAUAUUCAUAUUAAAACAUGAGGAUCACCCAUGUAGGCCAGAAGGCCUUGGGAGAAGGCAGGUCGGCUCA [Mat - Same State 2 - Mod of UCT - D58] (puzzle: Same State 2)
A. 212 nM

---

Test system: MS2 coat protein
Assay: apparent KD of MS2 coat protein; designed switch direction (-1 OFF switch, 1 ON switch): -1; higher = weaker reporter binding
Conditions: input ligand: FMN 200 uM
measured.metric: apparent KD of MS2 coat protein (nM)
Kindly answer with a numeric value in nM, unit omitted.

Q. Tell me reported apparent KD of MS2 coat protein for AUAAUGUGAGGAUAUCAGUCGACUAGCUUCGGCUAGUCGACUGAGAAGGCACAUGAGGAUCACCCAUGUAGAUC [E4/17-A1] (Eterna round: R97, puzzle: Exclusion 4) , tested with MS2 coat protein.
A. 59

Q. Same question, UAUUCUGGAGGAUAUACAUGAGGAUCACCCAUGUAAAUUGUACAGAGCGGGAGUCUAUGUAGAAGGCUAGGACA [EX3 C.2] (Eterna round: R97, puzzle: Exclusion 3) this time
A. 60.8

Next:
Q. API: value(readout= apparent KD of MS2 coat protein, system= MS2 coat protein, query= GGAUUCCAGUGAGGAUAUCCAAAUAAAAGCCAUGGAGAAGGCACAUGAGGAUCACCCAUGUAGGGCAAUAGCAGCGACCACUGC [Raqube] (Eterna round: R96, puzzle: Exclusion NG 1) )
A. 59.4

---

System: K4 kissing-loop RNA reporter;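 note: bound reporter read as fluorescence of individual clusters on recovered sequencing chips by microscopy, with normalized cluster intensities fitted with a binding model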
Assay: apparent KD of K4 kissing-loop reporter; higher = weaker reporter binding
Conditions: Eterna round: R107; input ligand: theophylline 20 uM
measured.metric: apparent KD of K4 kissing-loop reporter (nM)
Reply numerically in nM, unit not repeated.

Q. So what's the measured apparent KD of K4 kissing-loop reporter for this one? GGACCUCAGUGAUGUUGAGGUAACGCUGAUACCAGUGACUUAAUUCGCCCUUGGCAGCAGUCCACCGAGGUAUCUGAUUAGGUCU [Default title]
A. 155

Q. Moving on to UGAUUGAACUGAAGGAGCGGCAAGAGAGAAGGAAAUAUAGUGAUGUUAUAUAAGAGAGAGAGCCAGGUAGGUCGCAGAGGGAGGA [ExArgB.D]
A. 134

Q. Moving on to the next sequence: GCGGCCCAGCCGGAUACCAGUGAGCCGCUGGGAACCGCGGGCCCAGAGUGAUGUUCGGGACACCCUUGGCAGCCGCCUGGGUCGC [#2 Same State - Theophylline B Attempt #20 (HarryS)]
A. 301

Q. Note, next up: UAUAUAGUGACGGCCGCCACUAUAGUGAUGUUAUUGUUAGAGUGAUGUUUUGUUGUUUAAUUUUGUAGGACCGGGUUAUAUGUUA [tbbtmullin]
A. 497

Q. How about this sequence: UGAUACCAGGCGGCCGCCACUCCUACAGGUCAAAGACCUGUAAAGCUGGUUCUCCAGUGAUGUUGGAGGACCGGGCCUGGUAUCU [FiskerMod 29 - Jieux - Exclusion - Tryptophan B]
A. 150

***
Q. // apparent KD of K4 kissing-loop reporter lookup, key: "CCCAAGGGCCUACCGGUAUGAUGGACGGAUACCAGAGGCGAAAGCCUCCCUUGGCAGCCGGGUGUAGUGAUGUUACUCCGGUAGU"
A. 78.9

Q. Could you do the same for CGGGAAUUAGGUAUCGUCGAAAGCAAGAACCGAGGACCGGUACGGCCGCCACUCGCACCAGUGAUGUUGGUACAUUUGGUAUCCG [theeternabot_sameState_KL_Trp_A_31] , please?
A. 103

Q. Next record, please: GGAUAGGACAGAGGAUAUCCUUGAGGCAAGAAACUUGUCUCUAAAAGGAUGAACCUAGUGAUGUUAGGAGAAGGCUGUCCUAUCG [FmnBX 13 - #SwitchBubble #StaticStem #Palindromic]
A. 85

Q. Same for GUGAGUGACGGAGGAUAUGCGAUAGAUGUAGGAAAAUUAGUGAUGUUAGUUAUGGUAGAGAUAGAAGUAGAAGGUUGGUGUGUGU [RHig 3/7]
A. 585

Q. Also GGAUGGUAGGCGGCCGCCACUAAAACUGAACACAUACAAGCCAGUGAUGUUGGUAUGAUGAAGUAUAGGACCGGGCCUAGAUAGA [Exclusion - Tryptophan B (Freestyle 3)] , if possible.
A. 502

Q. Next record, please: GUACGCUGCUGAGUGAUGUUCAGCAAUCGCUAGGAUAUCGCUUUUGCGAGAAGGAGCGCAAUGAGGAAACUCGUUGUUAGUGUAC [FMN A 28]
A. 204

Q. Item: GGAUGGUAGGCGGCCGCCACUAAAACAGAACACAUACAAGCCAGUGAUGUUGGUAUGAUGGUGUAUAGGACCGGGCCUAGAUAGA [Exclusion - Tryptophan B (Freestyle 5)]
A. 186
